Measured selectivity ratio, listed per entry.
- PROCEDURE_DETAILS: Selectivity index, ratio of GI50 for cytotoxicity against human HepG2 cells to MEC for potentiation of colistin-induced antibacterial activity against Escherichia coli AR-0493 assessed as minimum re-sensitizing concentration
- Assay type: toxicity, cell-based
- STUDY_CONDITIONS: read-out: Selectivity Index
MEASURE: selectivity ratio

GIVEN_SMILES	VALUE
CCCCCCCNc1nc2nonc2nc1NCCCCCCC	1.3
CCCCCCCNc1nc2nonc2nc1Nc1cccc(Cl)c1	6.6
FC(F)(F)c1cccc(CNc2nc3nonc3nc2Nc2cccc(Cl)c2)c1	22
FC(F)(F)c1nc(NCCCNc2nc3nonc3nc2Nc2cccc(Cl)c2)ccc1Cl	35
CCCCNc1nc2nonc2nc1Nc1cccc(Cl)c1	11
Clc1ccc(CNc2nc3nonc3nc2NCc2ccc(Cl)cc2)cc1	36
Clc1cccc(CNc2nc3nonc3nc2Nc2cccc(Cl)c2)c1	7.7
FC(F)(F)Oc1cccc(CNc2nc3nonc3nc2NCc2cccc(OC(F)(F)F)c2)c1	18
FC(F)(F)c1nc(NCCCNc2nc3nonc3nc2NCCCNc2ccc(Cl)c(C(F)(F)F)n2)ccc1Cl	10
Clc1cccc(Nc2nc3nonc3nc2NCCc2ccccc2)c1	1.7
CCCCCCNc1nc2nonc2nc1NCCCCCC	1.2
